Target: T1, mouse MAdCAM expressed on cells (mouse, UniProt Q61826 22-405)
T1 construct: whole, on cells
T1 sequence (looked up): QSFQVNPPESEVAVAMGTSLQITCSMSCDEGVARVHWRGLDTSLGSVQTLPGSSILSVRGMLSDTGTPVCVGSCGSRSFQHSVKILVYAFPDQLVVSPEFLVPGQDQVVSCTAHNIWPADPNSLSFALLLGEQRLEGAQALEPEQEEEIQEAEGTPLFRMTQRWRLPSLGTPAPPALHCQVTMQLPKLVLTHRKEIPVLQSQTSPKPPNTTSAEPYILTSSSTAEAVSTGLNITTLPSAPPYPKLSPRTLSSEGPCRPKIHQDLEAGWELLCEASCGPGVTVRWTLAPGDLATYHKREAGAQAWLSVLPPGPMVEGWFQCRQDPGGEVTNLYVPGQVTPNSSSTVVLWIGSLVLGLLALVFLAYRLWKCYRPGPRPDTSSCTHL
Experiment: cell binding
ASSAY ENDPOINT: binding result

Recorded binding result, per entry:
MAdCAM antibody Clone ID 40 of Table 6 (scFv) (scFv) scFv: QVQLVQSGAEVKKPGASVKVSCKASGYTFTSYGISWVRQAPGQGLEWMGIINPRGGSTIFAQKFQGRVTMTRDTSTSTVYMELSSLRSEDTAVYYCARGTRSSGWYGWFDPWGQGTLVTVSSGGGGSGGGGSGGGGSGGGGSDIQMTQSPSSLSASVGDRVTITCRASQGIGNWLAWYQQKPGKAPKLLIYAASNLETGVPSRFSGSGSGTDFTLTISSLQPEDFATYYCQQIHSYPLTFGGGTKVEIK; no binding
MAdCAM antibody Clone ID 13 of Table 6 (scFv) (scFv) scFv: EVQLLESGGGLVQPGGSLRLSCAASGFTFDDYAMHWVRQAPGKGLEWVSYIDASGTTIYYADSVKGRFTISRDNSKNTLYLQMNSLRAEDTAVYYCAKDQAAAGYWYFDLWGRGTLVTVSSGGGGSGGGGSGGGGSGGGGSDIQMTQSPSSLSASVGDRVTITCQASQDISNYLNWYQQKPGKAPKLLIYKASTLESGVPSRFSGSGSGTDFTLTISSLQPEDFATYYCQQSYSTPITFGQGTRLEIK; no binding
MAdCAM antibody Clone ID 33 of Table 6 (scFv) (scFv) scFv: QVQLVQSGAEVKKPGASVKVSCKASGYTFTSYGISWVRQAPGQGLEWMGWMHPKSGDTGLTQKFQGRVTMTRDTSTSTVYMELSSLRSEDTAVYYCARDTPYYYYGMDVWGQGTTVTVSSGGGGSGGGGSGGGGSGGGGSDIQMTQSPSSLSASVGDRVTITCRASQSISSWLAWYQQKPGKAPKLLIYAASSLQSGVPSRFSGSGSGTDFTLTISSLQPEDFATYYCQQSYSVPITFGQGTKVEIK; no binding
MAdCAM antibody Clone ID 20 of Table 6 (scFv) (scFv) scFv: EVQLLESGGGLVQPGGSLRLSCAASGFTFDDYAMHWVRQAPGKGLEWVSYIDTSSSHLYYADSVKGRFTISRDNSKNTLYLQMNSLRAEDTAVYYCARDEAAAGYYGMDVWGQGTTVTVSSGGGGSGGGGSGGGGSGGGGSDIQMTQSPSSLSASVGDRVTITCQAGQDISNYLNWYQQKPGKAPKLLIYDASNLETGVPSRFSGSGSGTDFTLTISSLQPEDFATYYCQQTYSTPITFGQGTKLEIK; no binding
MAdCAM antibody Clone ID 4 of Table 6 (scFv) (scFv) scFv: QVQLVQSGAEVKKPGASVKVSCKASGGTFSSYAISWVRQAPGQGLEWMGSINPSGDTTSYAQKFQGRVTMTRDTSTSTVYMELSSLRSEDTAVYYCAKDKAQWLVGYFDYWGQGTLVTVSSGGGGSGGGGSGGGGSGGGGSDIQMTQSPSSLSASVGDRVTITCQASQDISNSLNWYQQKPGKAPKLLIYAASSLQSGVPSRFSGSGSGTDFTLTISSLQPEDFATYYCQQSYSSVITFGQGTKVEIK; binds
MAdCAM antibody Clone ID 64 of Table 6 (scFv) (scFv) scFv: EVQLLESGGGLVKPGGSLRLSCAASGFAFSSHWMHWVRQAPGKGLEWVAGTSGSGESRDYADFVKGRFTISRDDSKNTLYLQMNSLKTEDTAVYYCARETYYYYYMDVWGKGTTVTVSSGGGGSGGGGSGGGGSGGGGSDIQMTQSPSSLSASVGDRVTITCRASQGISNYLAWYQQKPGKAPKLLIYDAANLEGGVPSRFSGSGSGTDFTLTISSLQPEDFATYYCQQSDIFPPTFGQGTKVEIK; binds
MAdCAM antibody Clone ID 45 of Table 6 (scFv) (scFv) scFv: EVQLLESGGGLVQPGGSLRLSCAASGFSVSSNYMSWVRQAPGKGLEWVAGISYDGSSKPYADSVKGRFTISRDNSKNTLYLQMNSLRAEDTAVYYCARSRGIAARPLQHWGQGTLVTVSSGGGGSGGGGSGGGGSGGGGSDIVMTQSPDSLAVSLGERATINCKSSQSVLYSSNNKNYLAWYQQKPGQPPKLLIYWASTRQSGVPDRFSGSGSGTDFTLTISSLQAEDVAVYYCHQYYGHPPTFGGGTKVEIK; no binding
MAdCAM antibody Clone ID 3 of Table 6 (scFv) (scFv) scFv: QVQLVQSGAEVKKPGASVKVSCKASGYPFIGQYLHWVRQAPGQGLEWMGIINPSGGSTSYAQKFQGRVTMTRDTSTSTVYMELSSLRSEDTAVYYCAREGRLSYGMDAWGQGTLVTVSSGGGGSGGGGSGGGGSGGGGSDIQMTQSPSSLSASVGDRVTITCRASQSISSYLAWYQQKPGKAPKLLIYGASTLESGVPSRFSGSGSGTDFTLTISSLQPEDFATYYCQQTWGPPFTFGQGTKLEIK; binds

Kindly review the next binder as well.
**Query** What measured binding result goes with MAdCAM antibody Clone ID 12 of Table 6 (scFv) (scFv) scFv: QVQLVQSGAEVKKPGASVKVSCKASGYTFTGYYMHWVRQAPGQGLEWMGWIGPNSGDTNYAQKFQGRVTMTRDTSTSTVYMELSSLRSEDTAVYYCARDLDHNWYFDLWGRGTLVTVSSGGGGSGGGGSGGGGSGGGGSDIVMTQSPLSLPVTPGEPASISCRSSQSLLHSNGYNYLDWYLQKPGQSPQLLIYSSSNRAPGVPDRFSGSGSGTDFTLKISRVEAEDVGVYYCMQALHIPLTFGGGTKVEIK ?
**Result** no binding
